Consider the following compounds; for each one, report its Max % inhibition.
biological target: human PCSK9 (Homo sapiens, UniProt Q8NBP7); assay: PCSK9 ligand binding assay (TR-FRET): interference with binding of human PCSK9 to human LDLR; settings: efficacy (Amax), 100% = 1 uM unlabeled human PCSK9, 0% = DMSO
Sequence (Q8NBP7 153-692): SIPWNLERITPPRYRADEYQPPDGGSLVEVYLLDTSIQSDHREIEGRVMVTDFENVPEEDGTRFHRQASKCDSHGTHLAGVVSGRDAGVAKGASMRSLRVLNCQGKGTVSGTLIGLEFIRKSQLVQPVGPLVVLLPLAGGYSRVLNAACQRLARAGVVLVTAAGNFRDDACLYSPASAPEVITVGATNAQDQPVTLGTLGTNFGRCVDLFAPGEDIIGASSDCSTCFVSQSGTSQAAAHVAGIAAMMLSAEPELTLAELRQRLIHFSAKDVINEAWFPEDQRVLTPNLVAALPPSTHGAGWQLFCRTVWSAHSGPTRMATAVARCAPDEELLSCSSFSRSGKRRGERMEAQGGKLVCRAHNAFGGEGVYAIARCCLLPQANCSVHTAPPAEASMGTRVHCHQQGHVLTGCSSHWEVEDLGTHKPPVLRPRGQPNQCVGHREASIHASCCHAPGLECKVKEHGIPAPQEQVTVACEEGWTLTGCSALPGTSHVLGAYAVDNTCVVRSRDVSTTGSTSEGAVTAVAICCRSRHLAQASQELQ
Sequence (Q8NBP7 31-152 partner limits assumed): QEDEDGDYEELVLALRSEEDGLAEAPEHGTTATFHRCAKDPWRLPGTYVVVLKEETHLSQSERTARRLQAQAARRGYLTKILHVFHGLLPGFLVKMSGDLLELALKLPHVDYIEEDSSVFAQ
Note: unit % is implicit; provide only the numeric part.

Query block: Form: Entry = C[C@H]1C(=O)N[C@@H](CO)C(=O)N[C@@]2(Cc3ccc(Cl)cc3)CCCN(C2)C(=O)[C@H](Cc2ccccc2)CC(=O)N1Cc1ccc(Cl)cc1Oc1ccc(-c2cnc(CN(C)C)n2C)c(F)c1 | System = human PCSK9 (Homo sapiens, UniProt Q8NBP7) | Max % inhibition = ____
Result block: 110.0

Query block: Form: Entry = CNCc1ncc(-c2ccc(Oc3cc(Cl)cc(F)c3CN3C(=O)C[C@@H](Cc4cccc(C)n4)C(=O)N4CCC[C@@](Cc5ccc(Cl)cc5)(C4)N(C)C(=O)[C@H](COC)NC(=O)[C@@H]3C)cc2)n1C | System = human PCSK9 (Homo sapiens, UniProt Q8NBP7) | Max % inhibition = ____
Result block: 108.6

Query block: Form: Entry = COC[C@@H]1NC(=O)[C@H](C)N(Cc2ccc(Cl)cc2Oc2ccc(-c3cnc(CN(C)C)n3C)cc2)C(=O)C[C@@H](Cc2cccc(=O)n2C)C(=O)N2CCC[C@@](Cc3ccc(Cl)cc3)(C2)NC1=O | System = human PCSK9 (Homo sapiens, UniProt Q8NBP7) | Max % inhibition = ____
Result block: 105.2

Query block: Form: Entry = C[C@H]1C(=O)N[C@@H](CO)C(=O)N(C)[C@@]2(Cc3ccc(Cl)cc3)CCCN(C2)C(=O)[C@H](CC(F)(F)F)CC(=O)N1Cc1ccc(Cl)cc1Oc1ccc(-c2cnc(CN(C)C)n2C)cc1 | System = human PCSK9 (Homo sapiens, UniProt Q8NBP7) | Max % inhibition = ____
Result block: 117.5

Query block: Form: Entry = C[C@H]1C(=O)N[C@@H](CO)C(=O)N(C)[C@H](Cc2ccc(Cl)cc2)CN(C)C(=O)[C@H](Cc2ccccc2)CC(=O)N1Cc1ccc(Cl)cc1Oc1ccc(-c2cnc(CN3CCCC3)n2C)cc1.Cl | System = human PCSK9 (Homo sapiens, UniProt Q8NBP7) | Max % inhibition = ____
Result block: 104.6

Query block: Form: Entry = COC[C@@H]1NC(=O)[C@H](C)N(Cc2ccc(Cl)cc2Oc2ccc(-c3cnc(CN4CCCC4)n3C)cc2)C(=O)C[C@@H]([C@H]2CCc3ccccc32)C(=O)N(C)C[C@@H](Cc2ccc(Cl)cc2)N(C)C1=O.Cl | System = human PCSK9 (Homo sapiens, UniProt Q8NBP7) | Max % inhibition = ____
Result block: 98.3

Query block: Form: Entry = C[C@H]1C(=O)N[C@@H](CO)C(=O)N[C@@]2(Cc3ccc(Cl)cc3)CCCN(C2)C(=O)[C@H](CC2CC2)CC(=O)N1Cc1c(F)cc(Cl)cc1Oc1ccc(-c2cnc(CNC3CCC3)n2C)cc1 | System = human PCSK9 (Homo sapiens, UniProt Q8NBP7) | Max % inhibition = ____
Result block: 100.4

Query block: Form: Entry = C[C@@H]1CC(=O)N(Cc2c(F)cc(Cl)cc2Oc2ccc(-c3cnc(CN(C)C)n3C)cc2)[C@@H](C)C(=O)N[C@@H](CO)C(=O)N(C)[C@@]2(Cc3ccc(Cl)cc3)CCCN(C2)C1=O | System = human PCSK9 (Homo sapiens, UniProt Q8NBP7) | Max % inhibition = ____
Result block: 116.6

Query block: Form: Entry = COC[C@@H]1NC(=O)[C@H](C)N(Cc2c(F)cc(Cl)cc2Oc2ccc(-c3cnc(CN4CCCC4)n3C)cc2)C(=O)C[C@@H](Cc2cccc(C)n2)C(=O)N2CCC[C@@](Cc3ccc(Cl)cc3)(C2)N(C)C1=O | System = human PCSK9 (Homo sapiens, UniProt Q8NBP7) | Max % inhibition = ____
Result block: 102.7
